target: IRAK4 (Homo sapiens (Human)); assay: IRAK4 Biochemical HTRF Kinase Assay; conditions: Table 5; multiple runs; read-out: IRAK4 HTRF biochemical: IC50
Sequence (Q9NWZ3 whole entry, species assumed): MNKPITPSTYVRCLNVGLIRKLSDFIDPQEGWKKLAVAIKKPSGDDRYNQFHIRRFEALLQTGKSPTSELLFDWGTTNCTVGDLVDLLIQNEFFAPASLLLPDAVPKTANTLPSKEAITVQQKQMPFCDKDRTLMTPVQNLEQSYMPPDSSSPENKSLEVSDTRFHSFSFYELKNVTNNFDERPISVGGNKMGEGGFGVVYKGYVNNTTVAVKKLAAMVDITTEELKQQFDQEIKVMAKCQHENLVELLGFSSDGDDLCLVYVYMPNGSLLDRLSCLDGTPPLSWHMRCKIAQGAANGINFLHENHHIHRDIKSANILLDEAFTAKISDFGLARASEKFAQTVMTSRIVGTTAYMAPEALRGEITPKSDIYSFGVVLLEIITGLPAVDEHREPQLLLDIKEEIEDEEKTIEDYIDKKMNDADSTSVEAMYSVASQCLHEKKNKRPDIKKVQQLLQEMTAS

molecule: CNc1cc(-c2ccc3cc(C#N)cnn23)ncc1-c1nnc([C@H]2CC[C@H](NC(=O)CCCCCNc3ccc4c(c3)C(=O)N(C3CCC(=O)NC3=O)C4=O)CC2)s1 (some centres unmarked) [Example 68]
IC50 (nM): 0.8
//
molecule: CNc1cc(-c2ccc3cc(C#N)cnn23)ncc1-c1nnc(C23CCC(NC(=O)[C@H]4CC[C@H]4C(=O)N[C@H](C(=O)N4C[C@H](O)C[C@H]4C(=O)N[C@@H](C)c4ccc(-c5scnc5C)cc4)C(C)(C)C)(CC2)CC3)s1 (mixture of isomers) [Example 144]
IC50 (nM): 1.5
//
molecule: CNc1cc(-c2ccc3cc(C#N)cnn23)ncc1-c1nnc([C@H]2CC[C@H](NC(=O)CCOCCNc3ccc4c(c3)C(=O)N(C3CCC(=O)NC3=O)C4=O)CC2)s1 (some centres unmarked) [Example 63]
IC50 (nM): 0.6
//
molecule: Cc1ncsc1-c1ccc(CNC(=O)[C@@H]2C[C@@H](O)CN2C(=O)[C@@H](NC(=O)CCCC(=O)N2CCN(c3nnc(-c4cnc(-c5ccc6cc(C#N)cnn56)cc4NC(C)C)s3)CC2)C(C)(C)C)cc1 [Example 35]
IC50 (nM): 5.2
//
molecule: Cc1ncsc1-c1ccc(CNC(=O)[C@@H]2C[C@@H](O)CN2C(=O)[C@@H](NC(=O)C2(F)CC2)C(C)(C)C)c(OCC(=O)N2CCC3(CC2)CCN(c2nnc(-c4cnc(-c5ccc6cc(C#N)cnn56)cc4NC(C)C)s2)CC3)c1 [Example 83]
IC50 (nM): 6.8

---

biological target: IRAK4 (Homo sapiens (Human), UniProt Q9NWZ3); experiment: IRAK4 Degradation HiBiT Assay; settings: read-out: Cellular IRAK4 HiBiT: DC50; Table 5; multiple runs; HiBiT-tagged Jurkat cells, 4 hrs
Sequence (Q9NWZ3 whole entry): as the sequence (Q9NWZ3 whole entry, species assumed) above

compound: Cc1ncsc1-c1ccc(CNC(=O)[C@@H]2C[C@@H](O)CN2C(=O)C(NC(=O)[C@H]2CC[C@H](CN3CCN(c4nnc(-c5cnc(-c6ccc7cc(C#N)cnn67)cc5NC(C)C)s4)CC3)CC2)C(C)(C)C)cc1 (stereo partly shown)
DC50: 1.24 µM

compound: CC(C)Nc1cc(-c2ccc3cc(C#N)cnn23)ncc1-c1nnc(N2CCN(C3CCN(C(=O)Cc4cccc5c4CN(C4CCC(=O)NC4=O)C5=O)CC3)CC2)s1 (stereo not shown)
DC50: 0.0131 µM

compound: CNc1cc(-c2ccc3cc(C#N)cnn23)ncc1-c1nnc([C@H]2CC[C@@H](NC(=O)CCCCCNc3cccc4c3C(=O)N(C3CCC(=O)NC3=O)C4=O)CC2)s1 (stereo partly shown)
DC50: 0.0334 µM

compound: CC(C)Nc1cc(-c2ccc3cc(C#N)cnn23)ncc1-c1nnc(N2CCN(C(=O)CNc3cccc4c3C(=O)N(C3CCC(=O)NC3=O)C4=O)CC2)s1 (stereo not shown)
DC50: 0.105 µM

compound: CNc1cc(-c2ccc3cc(C#N)cnn23)ncc1-c1nnc(N2CCN(C(=O)C[C@H](NC(=O)[C@@H]3C[C@@H](O)CN3C(=O)[C@@H](NC(=O)C3(F)CC3)C(C)(C)C)c3ccc(-c4scnc4C)cc3)CC2)s1
DC50: 0.0858 µM

compound: CC(C)Nc1cc(-c2ccc3cc(C#N)cnn23)ncc1-c1nnc(N2CCN(Cc3ccc4c(c3)C(=O)N(C3CCC(=O)NC3=O)C4=O)CC2)s1 (stereo not shown)
DC50: 0.66 µM

compound: CNc1cc(-c2ccc3cc(C#N)cnn23)ncc1-c1nnc([C@H]2CC[C@H](N(C)C(=O)C[C@H](NC(=O)[C@@H]3C[C@@H](O)CN3C(=O)[C@@H](NC(=O)C3(F)CC3)C(C)(C)C)c3ccc(-c4scnc4C)cc3)CC2)s1
DC50: 0.0659 µM

compound: CC(C)Nc1cc(-c2ccc3cc(C#N)cnn23)ncc1-c1nnc(N2CCN(C3CCN(C(=O)CNc4cccc5c4C(=O)N(C4CCC(=O)NC4=O)C5=O)CC3)CC2)s1 (stereo not shown)
DC50: 0.0289 µM

compound: CNc1cc(-c2ccc3cc(C#N)cnn23)ncc1-c1nnc([C@H]2CC[C@H](NC(=O)CN3CCN(c4ccc5c(c4)C(=O)N(C4CCC(=O)NC4=O)C5=O)CC3)CC2)s1 (stereo partly shown)
DC50: 0.0169 µM

compound: CNc1cc(-c2ccc3cc(C#N)cnn23)ncc1-c1nnc(N2CCN(C3CCN(Cc4ccc(C(=O)NC5CCC(=O)NC5=O)cc4)CC3)CC2)s1 (stereo not shown)
DC50: 0.109 µM
